Known inhibition of a selection of molecules
# TESTED SYSTEM: UniProt P29597
# Sequence (P29597 whole entry, the tested form may be a part): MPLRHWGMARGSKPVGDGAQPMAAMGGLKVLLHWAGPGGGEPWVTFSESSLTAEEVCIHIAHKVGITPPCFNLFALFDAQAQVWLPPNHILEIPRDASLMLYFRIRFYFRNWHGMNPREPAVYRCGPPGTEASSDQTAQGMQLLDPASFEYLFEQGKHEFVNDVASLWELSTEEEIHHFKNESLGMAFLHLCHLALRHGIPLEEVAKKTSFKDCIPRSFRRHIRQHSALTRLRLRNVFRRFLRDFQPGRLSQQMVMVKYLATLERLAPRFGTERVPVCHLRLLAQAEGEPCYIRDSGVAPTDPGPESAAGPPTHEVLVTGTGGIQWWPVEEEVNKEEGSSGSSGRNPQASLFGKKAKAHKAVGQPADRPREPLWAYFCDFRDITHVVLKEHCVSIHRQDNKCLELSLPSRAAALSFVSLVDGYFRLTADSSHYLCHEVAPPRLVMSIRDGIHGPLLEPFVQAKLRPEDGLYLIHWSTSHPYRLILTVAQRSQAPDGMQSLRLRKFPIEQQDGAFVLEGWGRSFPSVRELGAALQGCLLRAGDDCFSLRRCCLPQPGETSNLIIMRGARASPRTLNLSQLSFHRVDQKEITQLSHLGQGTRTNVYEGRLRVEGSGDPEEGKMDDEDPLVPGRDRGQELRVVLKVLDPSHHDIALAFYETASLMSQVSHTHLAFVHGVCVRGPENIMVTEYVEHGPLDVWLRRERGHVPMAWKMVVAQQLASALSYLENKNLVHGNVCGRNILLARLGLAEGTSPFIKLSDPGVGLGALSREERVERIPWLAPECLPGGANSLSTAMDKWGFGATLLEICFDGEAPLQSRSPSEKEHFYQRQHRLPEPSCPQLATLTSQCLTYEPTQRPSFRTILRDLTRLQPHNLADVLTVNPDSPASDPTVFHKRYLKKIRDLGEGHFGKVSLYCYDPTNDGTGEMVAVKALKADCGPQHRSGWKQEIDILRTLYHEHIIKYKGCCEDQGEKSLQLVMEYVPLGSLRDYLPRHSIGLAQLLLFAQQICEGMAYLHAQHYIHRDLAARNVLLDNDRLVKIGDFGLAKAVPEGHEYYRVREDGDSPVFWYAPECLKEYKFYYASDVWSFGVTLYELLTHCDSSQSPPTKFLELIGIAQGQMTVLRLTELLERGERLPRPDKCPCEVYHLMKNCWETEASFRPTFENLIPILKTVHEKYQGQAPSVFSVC
# ASSAY: Inhibition of TYK2 JH2 pseudokinase domain at 1 uM

[[record]]
smiles_record = "FC(F)(F)c1ccc(Cl)cc1CN1CCNc2ncc(-c3ccnc(N4CCNCC4)c3)cc21"
recorded_endpoint = "inhibition"
result = "< 50%"

[[record]]
smiles_record = "CC(=O)N1CCN(c2cc(-c3cnc4c(c3)N(Cc3cc(Cl)ccc3C(F)(F)F)CCN4)ccn2)CC1"
recorded_endpoint = "inhibition"
result = "< 50%"

[[record]]
smiles_record = "CN1CCN(c2ccc(-c3cnc4c(c3)N(Cc3cc(Cl)ccc3C(F)(F)F)CCN4)cn2)CC1"
recorded_endpoint = "inhibition"
result = "< 50%"

[[record]]
smiles_record = "CN1CCN(c2ccc(-c3cnc4c(c3)N(Cc3c(F)ccc(F)c3Cl)CCN4)cn2)CC1"
recorded_endpoint = "inhibition"
result = "< 50%"

[[record]]
smiles_record = "CN1CCN(c2ccc(-c3cnc4c(c3)N(Cc3cc(Cl)ccc3Cl)CCN4)cn2)CC1"
recorded_endpoint = "inhibition"
result = "< 50%"


// inhibition lookup, molecule = CN1CCN(c2ccc(-c3cnc4c(c3)N(Cc3cc(F)ccc3F)CCN4)cn2)CC1 , result: < 50%

====

# System: Receptor-type tyrosine-protein kinase FLT3 (Homo sapiens), P36888 [N841I]
# ASSAY: Inhibition of FLT3 N841I mutant at 1 uM
Assign class by inhibition: not lower than 90% means fulfilled; lower than 90% means not fulfilled.

Sample answers from the record:
[[record]]
smiles_record = "CN1CCN(c2ccc(-c3cnc4c(c3)N(Cc3cc(Cl)ccc3Cl)CCN4)cn2)CC1"
tested_system = "Receptor-type tyrosine-protein kinase FLT3 (Homo sapiens), P36888 [N841I]"
cat = "fulfilled"

[[record]]
smiles_record = "FC(F)(F)c1ccc(Cl)cc1CN1CCNc2ncc(-c3ccnc(N4CCNCC4)c3)cc21"
tested_system = "Receptor-type tyrosine-protein kinase FLT3 (Homo sapiens), P36888 [N841I]"
cat = "fulfilled"

[[record]]
smiles_record = "CN1CCN(c2ccc(-c3cnc4c(c3)N(Cc3cc(F)ccc3F)CCN4)cn2)CC1"
tested_system = "Receptor-type tyrosine-protein kinase FLT3 (Homo sapiens), P36888 [N841I]"
cat = "not fulfilled"

[[record]]
smiles_record = "CN1CCN(c2ccc(-c3cnc4c(c3)N(Cc3c(F)ccc(F)c3Cl)CCN4)cn2)CC1"
tested_system = "Receptor-type tyrosine-protein kinase FLT3 (Homo sapiens), P36888 [N841I]"
cat = "not fulfilled"


With those in mind, consider the next compound.
Request: Evaluate CN1CCN(c2ccc(-c3cnc4c(c3)N(Cc3cc(Cl)ccc3C(F)(F)F)CCN4)cn2)CC1 : inhibition at minimum 90%?
Response: not fulfilled

====

Known inhibition of a selection of molecules
# TESTED SYSTEM: MAP/microtubule affinity-regulating kinase 3 (Homo sapiens) (UniProt P27448)
# Sequence (P27448 whole entry, looked up): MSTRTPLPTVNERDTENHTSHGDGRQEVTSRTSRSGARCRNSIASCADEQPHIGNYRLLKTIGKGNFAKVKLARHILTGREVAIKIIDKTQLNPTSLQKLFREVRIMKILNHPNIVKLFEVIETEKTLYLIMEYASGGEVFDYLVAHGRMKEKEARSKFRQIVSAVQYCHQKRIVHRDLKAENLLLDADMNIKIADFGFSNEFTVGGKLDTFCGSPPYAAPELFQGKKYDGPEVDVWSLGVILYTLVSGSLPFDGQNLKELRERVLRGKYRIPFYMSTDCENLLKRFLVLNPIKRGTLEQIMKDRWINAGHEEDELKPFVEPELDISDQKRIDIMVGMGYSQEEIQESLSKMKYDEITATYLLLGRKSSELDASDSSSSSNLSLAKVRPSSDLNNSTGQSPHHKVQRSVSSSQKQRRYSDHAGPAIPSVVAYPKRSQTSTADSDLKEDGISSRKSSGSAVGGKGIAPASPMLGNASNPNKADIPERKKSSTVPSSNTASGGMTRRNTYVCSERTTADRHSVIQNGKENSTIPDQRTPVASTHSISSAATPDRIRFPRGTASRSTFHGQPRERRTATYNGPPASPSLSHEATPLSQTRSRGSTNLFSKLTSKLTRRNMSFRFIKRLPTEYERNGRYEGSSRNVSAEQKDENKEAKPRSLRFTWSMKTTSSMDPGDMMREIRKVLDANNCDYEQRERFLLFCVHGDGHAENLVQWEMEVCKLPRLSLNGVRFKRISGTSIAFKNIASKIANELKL
# ASSAY: Inhibition of MARK3 at 1 uM

Solved entries:
[[record]]
smiles_record = "CN1CCN(c2ccc(-c3cnc4c(c3)N(Cc3cc(F)ccc3F)CCN4)cn2)CC1"
result = "< 50%"

[[record]]
smiles_record = "CC(=O)N1CCN(c2cc(-c3cnc4c(c3)N(Cc3cc(Cl)ccc3C(F)(F)F)CCN4)ccn2)CC1"
result = "< 50%"

[[record]]
smiles_record = "CN1CCN(c2ccc(-c3cnc4c(c3)N(Cc3cc(Cl)ccc3C(F)(F)F)CCN4)cn2)CC1"
result = "< 50%"

[[record]]
smiles_record = "O=C(c1ccc(-c2cnc3c(c2)N(Cc2cc(Cl)ccc2C(F)(F)F)CCN3)cc1)N1CCC(N2CCCC2)CC1"
result = "< 50%"

[[record]]
smiles_record = "O=C(O)c1ccc(-c2cnc3c(c2)N(Cc2cc(Cl)ccc2C(F)(F)F)CCN3)cc1"
result = "< 50%"


// inhibition lookup, molecule = FC(F)(F)c1ccc(Cl)cc1CN1CCNc2ncc(-c3ccnc(N4CCNCC4)c3)cc21 , result: < 50%

// inhibition lookup, molecule = COC1CCN(C(=O)c2ccc(-c3cnc4c(c3)N(Cc3cc(Cl)ccc3C(F)(F)F)CCN4)cc2)CC1 , result: < 50%

// inhibition lookup, molecule = O=C(c1ccc(-c2cnc3c(c2)N(Cc2cc(Cl)ccc2C(F)(F)F)CCN3)cc1)N1CCCCC1 , result: < 50%

// inhibition lookup, molecule = CN1CCN(c2ccc(-c3cnc4c(c3)N(Cc3c(F)ccc(F)c3Cl)CCN4)cn2)CC1 , result: < 50%

// inhibition lookup, molecule = CN1CCN(c2ccc(-c3cnc4c(c3)N(Cc3cc(Cl)ccc3Cl)CCN4)cn2)CC1 , result: < 50%
